- Tested on: housefly adults (Musca domestica)
- method: Comparative residual effect in soil
- Assay type: in vivo
- conditionNotes: 4 weeks, soil concentration four times LD50, 25° C., 90% relative humidity; 40320 min
observedProperty: Residual effect in soil (mortality), 4 weeks
Give a plain numeric answer without units written out.

In the examples that follow, each entry is paired with its recorded Residual effect in soil (mortality), 4 weeks.
smi	experimentalValue
CSC(C)=NOC(=O)N(C)SN(C)C(=O)Oc1cccc(C=O)c1	73
CSC(C)=NOC(=O)N(C)SN(C)C(=O)Oc1cc(C)c(C)c(C)c1	0
CNC(=O)ON=C(C)SC	15

query: Looking for the measured Residual effect in soil (mortality), 4 weeks of "CSC(C)=NOC(=O)N(C)SN(C)C(=O)Oc1cccc(C)c1" , can you help?
result: 23

meta.source: patent US4496591A
